target: Sm.TRPMPZQ (Schistosoma mansoni); test: cell-based; conditions: re-sourced, independently procured sample; read-out: EC50
measurement_type: pEC50
In textbook form, pEC50 equals minus log to base ten of the concentration in mol/L.

Quick one: pEC50 for COc1ccc(-c2nnc3ccc(-c4cccc(C(C)C)c4)cn23)cc1OC ?
5.04

----------
target: Sm.TRPMPZQ (Schistosoma mansoni, UniProt A0A5K4F0X5); assay: cell-based; conditions: read-out: IC50, block of PZQ-evoked Ca2+ signals
Sequence (A0A5K4F0X5 entry or part of it): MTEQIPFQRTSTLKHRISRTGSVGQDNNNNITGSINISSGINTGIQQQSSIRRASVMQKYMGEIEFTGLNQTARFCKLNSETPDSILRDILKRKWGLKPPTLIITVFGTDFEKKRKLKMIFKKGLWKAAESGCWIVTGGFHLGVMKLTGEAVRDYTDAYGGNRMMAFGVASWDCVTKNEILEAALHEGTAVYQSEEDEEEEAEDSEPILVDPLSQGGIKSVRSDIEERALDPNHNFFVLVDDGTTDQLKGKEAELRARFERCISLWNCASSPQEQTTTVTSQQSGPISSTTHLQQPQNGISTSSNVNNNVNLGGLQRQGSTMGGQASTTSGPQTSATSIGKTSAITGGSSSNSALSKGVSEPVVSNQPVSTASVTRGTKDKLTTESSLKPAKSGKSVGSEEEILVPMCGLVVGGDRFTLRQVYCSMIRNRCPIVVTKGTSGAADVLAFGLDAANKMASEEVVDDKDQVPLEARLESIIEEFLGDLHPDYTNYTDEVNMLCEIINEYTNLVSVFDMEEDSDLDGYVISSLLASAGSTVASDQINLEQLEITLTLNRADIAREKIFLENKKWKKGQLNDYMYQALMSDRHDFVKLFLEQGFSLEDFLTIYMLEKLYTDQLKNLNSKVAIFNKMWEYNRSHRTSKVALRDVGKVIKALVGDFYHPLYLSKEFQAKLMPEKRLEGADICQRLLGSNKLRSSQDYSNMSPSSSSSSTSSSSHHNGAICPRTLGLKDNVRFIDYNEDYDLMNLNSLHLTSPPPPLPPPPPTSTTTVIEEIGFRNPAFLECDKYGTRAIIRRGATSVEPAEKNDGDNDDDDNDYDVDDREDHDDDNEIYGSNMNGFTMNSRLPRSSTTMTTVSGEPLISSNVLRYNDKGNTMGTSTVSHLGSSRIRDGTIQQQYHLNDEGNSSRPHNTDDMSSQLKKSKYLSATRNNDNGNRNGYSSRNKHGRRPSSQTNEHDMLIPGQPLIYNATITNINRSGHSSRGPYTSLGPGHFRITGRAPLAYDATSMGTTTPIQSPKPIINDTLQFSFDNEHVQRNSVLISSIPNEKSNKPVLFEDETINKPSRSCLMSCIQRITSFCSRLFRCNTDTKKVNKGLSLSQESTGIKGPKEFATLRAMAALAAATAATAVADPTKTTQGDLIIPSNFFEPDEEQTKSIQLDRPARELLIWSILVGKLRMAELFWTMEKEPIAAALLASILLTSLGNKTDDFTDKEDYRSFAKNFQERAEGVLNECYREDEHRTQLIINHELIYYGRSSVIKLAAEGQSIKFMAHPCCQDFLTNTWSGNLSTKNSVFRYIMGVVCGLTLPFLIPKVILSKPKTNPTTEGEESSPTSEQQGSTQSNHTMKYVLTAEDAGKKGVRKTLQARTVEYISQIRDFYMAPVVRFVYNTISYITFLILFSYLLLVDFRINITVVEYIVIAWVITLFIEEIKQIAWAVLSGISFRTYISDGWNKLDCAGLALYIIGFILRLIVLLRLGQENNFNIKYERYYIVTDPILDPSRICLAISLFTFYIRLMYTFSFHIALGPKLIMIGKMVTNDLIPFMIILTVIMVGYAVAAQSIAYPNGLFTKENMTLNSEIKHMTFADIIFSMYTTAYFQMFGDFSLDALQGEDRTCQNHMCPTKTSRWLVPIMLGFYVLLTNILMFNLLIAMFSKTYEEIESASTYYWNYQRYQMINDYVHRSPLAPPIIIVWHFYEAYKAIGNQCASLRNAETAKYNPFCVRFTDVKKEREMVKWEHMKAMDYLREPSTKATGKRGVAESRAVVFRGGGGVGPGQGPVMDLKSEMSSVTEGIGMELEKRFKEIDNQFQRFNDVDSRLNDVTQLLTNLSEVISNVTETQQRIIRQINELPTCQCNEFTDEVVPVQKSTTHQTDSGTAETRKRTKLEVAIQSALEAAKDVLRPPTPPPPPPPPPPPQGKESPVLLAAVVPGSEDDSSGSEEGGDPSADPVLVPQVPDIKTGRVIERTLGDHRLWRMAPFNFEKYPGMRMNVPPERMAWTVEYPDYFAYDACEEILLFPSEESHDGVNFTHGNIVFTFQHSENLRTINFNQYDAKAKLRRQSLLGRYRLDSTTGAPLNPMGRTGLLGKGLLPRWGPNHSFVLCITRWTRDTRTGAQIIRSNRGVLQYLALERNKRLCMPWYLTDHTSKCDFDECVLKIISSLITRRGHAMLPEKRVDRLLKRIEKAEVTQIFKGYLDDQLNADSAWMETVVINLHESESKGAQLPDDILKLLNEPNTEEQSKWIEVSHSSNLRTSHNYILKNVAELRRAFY
measurement_type: pIC50
Please treat pIC50 as minus the base-10 logarithm of the molar concentration.

Any idea what pIC50 came out for Cc1onc(-c2ccccc2)c1C(=O)N1CCN(C2c3ccccc3-c3ccccc32)CC1 on Sm.TRPMPZQ (Schistosoma mansoni, UniProt A0A5K4F0X5)?
5.89

Values were extracted from paper PMC8565742.
